These measurements were taken from patent US20240368275A1.

# test system: T1, human Nectin4-Fc fusion protein (human, UniProt Q96NY8 32-349)
# T1 construct: Recombinant protein coated in the scFv ELISA and captured on the anti-hFc chip in the scFv SPR; also called recombinant Nectin4-Fc fusion protein; human Nectin4-Fc protein; not shown: Fc part
# T1 sequence (looked up): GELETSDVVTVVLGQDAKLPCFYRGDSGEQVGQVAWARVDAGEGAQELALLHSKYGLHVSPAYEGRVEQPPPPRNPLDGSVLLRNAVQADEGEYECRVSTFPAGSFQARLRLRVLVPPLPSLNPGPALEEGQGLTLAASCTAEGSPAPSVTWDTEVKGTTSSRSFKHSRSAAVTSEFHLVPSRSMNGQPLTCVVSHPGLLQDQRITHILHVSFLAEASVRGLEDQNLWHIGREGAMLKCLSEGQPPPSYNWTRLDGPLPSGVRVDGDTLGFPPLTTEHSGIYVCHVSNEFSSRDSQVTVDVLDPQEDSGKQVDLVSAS
# measurement notes: SPR Biacore T200, Nectin4-Fc captured on anti-hFc chip, scFv injected
# koff per entry

>  <binder>
2021EP030-F02 scFv (scFv, V domains shown) VH: QVQLQESGPGLVKPSETLSLTCTVSGGSISSSSYYWGWIRQPPGKGLEWIGSIYYSGSTYYNPSLKSRVTISVDTSKNQFSLKLSSVTAADTAVYYCARQANQVVPAAIPWAKPGGTPPNWFDPWGQGTLVTVSS VL: QLVLTQPPSVSVAPGETARITCGGNNIGSKSVHWYQQKPGQAPVLVIYYDSARPSGIPERVSGSNSGNTATLTISRVEAGDEADYYCQVWDSSSDHPRVFGTGTKLTVL

>  <koff / s⁻¹>
0.000215

$$$$
>  <binder>
2021EP023-D06 scFv (scFv, V domains shown, Purified scFv with C-terminal flag and 6xHis tag) VH: QVQLVESGAEVKKPGSSVKVSCKASGGTFSSYAISWVRQAPGQGLEWMGGIIPIFGTANYAQKFQGRVTITADESTSTAYMELSSLRSEDTAVYYCARSRPVRGAYYWGQGTLVTVSS VL: DIQMTQSPSSLSASVGDRVTITCRASQIVNSNYLNWYQQKPGKAPNLLIYGVSNLQVGVPSRFSGSGSGTDFTLSISSLQVEDSATYYCQQSYTTPRYSFGQGTKLEIRR

>  <koff / s⁻¹>
0.000195

$$$$
>  <binder>
2021EP030-C11 scFv (scFv, V domains shown) VH: QMQLVQSKPEVKKPGTSVKVSCKASGFTFTSSAVQWVRQARGQRLEWIGWIVVGSGNTNYAQKFQERVTITRDMSTSTAYMELSSLRSEDTAVYYCAADGDYDIEGALDYWGQGTLVTVSS VL: EIVLTQSPAILSLSPGERATLSCRASQSVSSYLAWYQQKPGQAPRLLIYDASNRATGIPARFSGSGSGTDFTLTISSLEPEDFAVYYCQQRSNWITFGGGTKVEIK

>  <koff / s⁻¹>
0.000262

$$$$
